Data provenance: patent US20110135636A1

Readings of % inhibition for the listed binders
# systemTested: T1, recombinant human EGFR extracellular domain with 6xHis (human, UniProt P00533 25-645)
# T1 construct: In-house produced; also called 6xHis EGFR ECD; soluble human EGFR ECD; not shown: 6xHis tag
# methodDescription: SPR competition, competitor 1261
measurementType: % inhibition (%)

1. antibody 1284 (antibody, human IgG1, kappa, V domains shown, Chimeric IgG1 kappa) VH: QVQLQQPGAELVKPGASVKLSCKASGYTFTSDWMHWMKQRPGQGLEWIGEINPSNGRSSYNEKFKSKATLTVDKSSSTAYMQLSSLTSEDSAVYYCARIGGIYVETYWGQGTLVTVSS VL: DIVLTQSPASLAVSLGQRATISCRASQSVSTSTYSYMHWYQQKSGQPPKLLIKYASNLESGVPARFSGSGSGTDFTLNIHPVEEEDTATYYCQHSWEIPWTFGGGTKLEIKR	4
2. antibody 1320 (antibody, human IgG1, kappa, V domains shown, Chimeric IgG1 kappa) VH: QVQLQQPGAELVKPGASMKLSCKASGYTFTNYWMHWVKQRPGQGLEWIGEINPSNGRTNYNEKFKSKATLTVDKSSSTAYMQLSSLTSEDSGVYYCAKGGNYYDYDWDYWGQGTTLTVSS VL: DIQMTQTTSSLSASLGDRVTISCSASQDISNYLNWYQQKPDGTVKLLIYHTSTLHSGVPSRFSGSGSGTDYSLTISNLEPEDIATYYCQQYSKLPWTFGGGTKLEIKR	4
